System: SK-MEL-2
Assay text: NCI tumour cell line growth inhibition, 48 h
Calls of active or inactive are those of the source. Cut-off read from the data, not from the text of the source: active = GI50 up to about 1.1 µM and inactive = higher.
Measured GI50 values are reported for all entries that follow.
Property label: GI50

>>> print(df.to_string())
                                   molecule  property_label       recorded_value
0  COc1cc(/C=C2\N=C(c3ccccc3)N(c3ccc(C(=O)c4ccccc4)cc3N3C(=O)/C(=C/c4cc(OC)c(OC)c(OC)c4)N=C3c3ccccc3)C2=O)cc(OC)c1OC            GI50   9.77 µM (inactive)
1  CCOC(=O)C1=C(C)N(Cc2ccccc2)C2(O)C(OC)CC(=O)C3C(=O)N(c4ccccc4)C(=O)C132 (stereo not given)            GI50   7.57 µM (inactive)
2  CCOC(=O)CCC(C(=O)OCC)n1nnc2cc(Nc3c(C)[n+]([O-])c4cc(F)c(OCC)cc4[n+]3[O-])ccc21 (stereo not given)            GI50   83.4 µM (inactive)
3                             NCCCNCCCNCCCN            GI50  > 100 µM (inactive)
4  O=[N+]([O-])c1ccccc1S(=O)(=O)c1cccc2c1NCCC2            GI50   21.6 µM (inactive)
5  COc1ccc2[nH]c3cc4c(=O)c5cc(OC)ccc5[nH]c4cc3c(=O)c2c1            GI50  > 100 µM (inactive)
6        COc1ccc(NCc2cc(OC)c(OC)c(OC)c2)cc1            GI50    0.245 µM (active)
7  CN(C)CCNC(=O)c1cccc2ccc(-c3ccc(O)cc3)nc12            GI50    4.5 µM (inactive)
8  CC1=NN2C=Nc3c(c(-c4ccc(Cl)cc4)cn3-c3ccc(C)cc3)C2N1 (stereo not given)            GI50  > 100 µM (inactive)
9      O=NN(CCCl)C(=O)NC1CCCCC1 [LOMUSTINE]            GI50   74.3 µM (inactive)
